Ref: paper PMC8809517

What Kd was measured for each of the following?
target.of.assay: T1, GFP-9S library array, motif 4 ND N98F;D124G (synthetic construct, N98F;D124G)
T1 chain: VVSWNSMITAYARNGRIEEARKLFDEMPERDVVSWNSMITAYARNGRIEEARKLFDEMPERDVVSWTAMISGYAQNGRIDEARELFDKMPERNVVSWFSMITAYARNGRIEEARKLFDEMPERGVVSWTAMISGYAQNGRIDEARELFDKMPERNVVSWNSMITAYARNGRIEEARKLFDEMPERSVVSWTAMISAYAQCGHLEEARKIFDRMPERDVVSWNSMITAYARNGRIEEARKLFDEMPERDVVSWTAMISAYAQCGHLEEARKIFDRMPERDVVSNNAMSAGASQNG
test.details: high-throughput RNA pulldown from lysate on Ni-NTA beads; HRP: 50 mM Tris pH 8, 150 mM NaCl, 1 mM beta-mercaptoethanol, 50 ug/ml BSA, 3 ug/ml yeast RNA, 0.5% heparin; ITC and FP: Tris pH 8, 200 mM KCl, 5% glycerol; MST: 50 mM Tris pH 8, 200 mM NaCl, 1 mM DTT, BSA, heparin, 0.05% Tween 20
experimental.setup: tags: N-terminal His-eGFP; label: 5' Cy5
Numbers only, in nM.

Look up Kd for the entries below, preserving their order.
1. AUUAGACGUGA (ssRNA) [Cy5-rpoA-G]
2. AUUACACGUGA (ssRNA) [Cy5-rpoA]

1: 75.9; 2: 74.1
